Subject Of Test: Integrin alpha-4/beta-7 (Homo sapiens) (UniProt P13612+P26010)
Run Description: Inhibition of alpha4-beta7 lymphoma cell binding to CHO-VCAM-1 cells.
Assay type: cell-based
Measured Attribute: Adhesion (%)
Your answer should be a plain number; it is taken to be in %.

A selection of reference data follows.
# Entry Smiles, Measured Attribute, Unit, Experimental Result
measured = [
    ("NC(=O)C[C@@H]1NC(=O)CNC(=O)[C@@H](Cc2ccccc2)NC(=O)[C@@H](Cc2c[nH]cn2)NC(=O)[C@@H](CCC(=O)O)NC1=O", "Adhesion", "%", 93),
    ("CC(C)C[C@@H]1NC(=O)[C@@H](Cc2ccc(O)cc2)NC(=O)[C@H]2CCCN2C(=O)[C@@H](CC(=O)O)NC(=O)[C@H]([C@@H](C)O)NC(=O)[C@@H](CC(=O)O)NC1=O", "Adhesion", "%", 37),
]

Here's the next entry for you.
Prompt: Given the compound CC(C)C[C@@H]1NC(=O)[C@@H](Cc2ccccc2)NC(=O)[C@H]2CCCN2C(=O)[C@@H](CC(=O)O)NC(=O)[C@H]([C@@H](C)O)NC(=O)[C@@H](CC(=O)O)NC1=O , what is its reported Adhesion?
Completion: 38

----------
Subject Of Test: Integrin alpha-4/beta-7 (Homo sapiens) (UniProt P13612+P26010)
Run Description: Ability to inhibit adhesion of alpha4-beta7 integrin expressing 38-beta7 lymphoma cells to chinese hamster ovary (CHO) cells stably transfected with MAdCAM-1
Assay type: cell-based
Quick reference: Adhesion of the listed items.
Your answer should be a plain number; it is taken to be in %.

# Entry Smiles, Adhesion / %
records = [
    ("CC(C)C[C@@H]1NC(=O)[C@@H](CCCN=C(N)N)NC(=O)[C@H]2CCCN2C(=O)[C@@H](C)NC(=O)[C@H]([C@@H](C)O)NC(=O)[C@@H](CC(=O)O)NC1=O", 26),
]

Prompt: Given the compound CC(C)C[C@@H]1NC(=O)[C@@H](C)NC(=O)[C@H]2CCCN2C(=O)[C@@H](CC(=O)O)NC(=O)[C@H](C(C)C)NC(=O)[C@@H](CC(=O)O)NC1=O , what is its reported Adhesion?
Completion: 40

Prompt: Given the compound CC(C)C[C@@H]1NC(=O)[C@@H](CC(=O)O)NC(=O)[C@H]2CCCN2C(=O)[C@@H](C)NC(=O)[C@H]([C@@H](C)O)NC(=O)[C@@H](CC(=O)O)NC1=O , what is its reported Adhesion?
Completion: 115

Prompt: Given the compound CC(C)C[C@@H]1NC(=O)[C@H](C)NC(=O)[C@H]2CCCN2C(=O)[C@H]([C@@H](C)O)NC(=O)[C@@H](CC(=O)O)NC1=O , what is its reported Adhesion?
Completion: 89

Prompt: Given the compound CC(C)C[C@@H]1NC(=O)[C@H](C)NC(=O)[C@@H](C)NC(=O)[C@@H]([C@@H](C)O)NC(=O)[C@@H](CC(=O)O)NC1=O , what is its reported Adhesion?
Completion: 85

Prompt: Given the compound CC(C)C[C@@H]1NC(=O)[C@@H](CC(=O)O)NC(=O)[C@H]2CCCN2C(=O)[C@@H](CCCCN)NC(=O)[C@H]([C@@H](C)O)NC(=O)[C@@H](CC(=O)O)NC1=O , what is its reported Adhesion?
Completion: 102
